# credit: patent US20190338002A1

In this section, each of the binders is paired with its reported pKd.
Target: T1, human beta CGRP (SEQ ID NO: 81) (human, not fully specified)
T1 construct: also called human βCGRP; hβCGRP
T1 peptide: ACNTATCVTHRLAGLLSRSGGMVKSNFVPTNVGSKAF
Assay: SPR, 37 C, mutein captured, CGRP analyte
pKd: −log10 of the molar value.
quantity: pKd

binder | assay-result
lipocalin mutein SEQ ID NO: 15 (designed binder, biotinylated by NHS chemistry for capture in SPR) QDSTSDLIPAPPLSKVPLQQNFQDNQFHGKWYVVGRAANDRLREDKDPEKMEATIYELKEDKSYNVTDVGFSRKKCIYVIHTFVPGSQPGEFTLGNIKSYPGTTSGLVRVVSTNYNQHAMVFFKVVGQNRESFEITLYGRTKELTSELKENFIRFSKSLGLPENHIVFPVPIDQCIDGSAWSHPQFEK | 10.74
lipocalin mutein SEQ ID NO: 28 (designed binder, biotinylated by NHS chemistry for capture in SPR) QDSTSDLIPAPPLSKVPLQQNFQDNQFHGKWYVVGWAGNTLLREDKDPIKMQAIIYELKEDRSYNVTWVYFSEKKCNYHIETFVPGSQPGEFTLGTIKSYPGETPILVRVMSTNYNQHAMVFFKGVNQNREIFEIILYGRTKELTNELKENFIRFSKSLGLPENHIVFPVPIDQCIDGSAWSHPQFEK | 10.85
lipocalin mutein SEQ ID NO: 12 (designed binder, biotinylated by NHS chemistry for capture in SPR) QDSTSDLIPAPPLSKVPLQQNFQDNQFHGKWYVVGWAGNTLLREDKDPPKMQATIYELKEDRSYNVTWVYFSEKKCNYHIETSVPGSQPGEFTLGTIQSHPGETPILVRVVSTNYNQHAMVFFKGMGQNREIFEITLYGRTKELTSELKENFIRFSKSLGLPENHIVFPVPIDQCIDGSAWSHPQFEK | 10.02
lipocalin mutein SEQ ID NO: 27 (designed binder, biotinylated by NHS chemistry for capture in SPR) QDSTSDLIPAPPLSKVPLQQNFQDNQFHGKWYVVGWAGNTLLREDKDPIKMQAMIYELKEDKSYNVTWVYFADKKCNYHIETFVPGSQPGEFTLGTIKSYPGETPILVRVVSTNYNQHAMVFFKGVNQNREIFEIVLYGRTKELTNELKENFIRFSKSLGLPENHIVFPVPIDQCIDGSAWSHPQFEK | 10.96
lipocalin mutein SEQ ID NO: 24 (designed binder, biotinylated by NHS chemistry for capture in SPR) QDSTSDLIPAPPLSKVPLQQNFQDNQFHGKWYVVGWAGNTLLREDKDPIKMQAKIYELKEDRSYNVTWVYFAEKKCNYHIETFVPGSQPGEFTLGTIKSYPGETPILVRVVSTNYNQHAMVFFKGVNQNREIFEIILYGRTKELTNELKENFIRFSKSLGLPENHIVFPVPIDQCIDGSAWSHPQFEK | 11.40
